# Tested on: Acinetobacter baumannii
# test name: Antibacterial activity against Acinetobacter baumannii AB-3167 by broth microdilution method
# Assay type: functional
assay endpoint: MIC (µg/mL)

Example results:
>>> print(df.to_string())
                         chemical_structure             assay_target  experimental_value
0  CC(C)(O/N=C(\C(=O)N[C@@H]1C(=O)N(S(=O)(=O)[O-])[C@@H]1CNC(=O)OCc1cc(=O)c(O)cn1O)c1csc(N)n1)C(=O)[O-].[Na+].[Na+]  Acinetobacter baumannii               0.125
1  Nc1nc(/C(=N/OCCCC(=O)O)C(=O)N[C@@H]2C(=O)N(S(=O)(=O)O)[C@@H]2CNC(=O)NCc2cc(=O)c(O)cn2O)cs1  Acinetobacter baumannii                 0.5
2  CC(C)(O/N=C(\C(=O)N[C@@H]1C(=O)N(S(=O)(=O)[O-])[C@@H]1CNC(=O)c1cc(=O)c(O)cn1O)c1csc(N)n1)C(=O)[O-].[Na+].[Na+]  Acinetobacter baumannii                 0.5
3  Nc1nc(/C(=N/OC2(C(=O)O)CCCC2)C(=O)N[C@@H]2C(=O)N(S(=O)(=O)O)[C@@H]2CNC(=O)NCc2cc(=O)c(O)cn2O)cs1  Acinetobacter baumannii               0.125
4  CO/N=C(\C(=O)N[C@@H]1C(=O)N2C(C(=O)[O-])=C(C[N+]3(C)CCCC3)CS[C@H]12)c1csc(N)n1  Acinetobacter baumannii                   2
5  Nc1nc(/C(=N/OCc2cscn2)C(=O)N[C@@H]2C(=O)N(S(=O)(=O)O)[C@@H]2CNC(=O)NCc2cc(=O)c(O)cn2O)cs1  Acinetobacter baumannii                   1
6  CC(C)C[C@H](O/N=C(\C(=O)N[C@@H]1C(=O)N(S(=O)(=O)O)[C@@H]1CNC(=O)NCc1cc(=O)c(O)cn1O)c1csc(N)n1)C(=O)O  Acinetobacter baumannii                   1
7  C[C@@H](O)[C@H]1C(=O)N2C(C(=O)O)=C(S[C@@H]3CN[C@H](C(=O)N(C)C)C3)[C@H](C)[C@H]12  Acinetobacter baumannii                0.25

P = CC(C)(O/N=C(\C(=O)N[C@@H]1C(=O)N(S(=O)(=O)O)[C@@H]1CNC(=O)c1cc(=O)c(O)c[nH]1)c1csc(N)n1)C(=O)O
Q = CC(C)(O/N=C(\C(=O)N[C@@H]1C(=O)N(S(=O)(=O)O)[C@@H]1CNC(=O)c1cccc(O)c1O)c1csc(N)n1)C(=O)O
R = CC(C)(O/N=C(\C(=O)N[C@@H]1C(=O)N(S(=O)(=O)O)[C@@H]1CNC(=O)NCc1cc(=O)c(O)cn1O)c1csc(N)n1)C(=O)O
S = CC(C)(O/N=C(\C(=O)N[C@@H]1C(=O)N(S(=O)(=O)O)[C@@H]1CNC(=O)c1cc(=O)c(O)cn1CC(=O)O)c1csc(N)n1)C(=O)O
T = Nc1nc(/C(=N/OCc2nnn[nH]2)C(=O)N[C@@H]2C(=O)N(S(=O)(=O)O)[C@@H]2CNC(=O)NCc2cc(=O)c(O)cn2O)cs1
Task: // ranking: key=MIC, reverse=True List the labels, following the order given in the request.
Output: Q, S, T, R, P
